These data points were gathered from ChEMBL document CHEMBL2074285.

- System under test: ATP-binding cassette sub-family C member 6 (Homo sapiens)
- Sequence (O95255 whole entry): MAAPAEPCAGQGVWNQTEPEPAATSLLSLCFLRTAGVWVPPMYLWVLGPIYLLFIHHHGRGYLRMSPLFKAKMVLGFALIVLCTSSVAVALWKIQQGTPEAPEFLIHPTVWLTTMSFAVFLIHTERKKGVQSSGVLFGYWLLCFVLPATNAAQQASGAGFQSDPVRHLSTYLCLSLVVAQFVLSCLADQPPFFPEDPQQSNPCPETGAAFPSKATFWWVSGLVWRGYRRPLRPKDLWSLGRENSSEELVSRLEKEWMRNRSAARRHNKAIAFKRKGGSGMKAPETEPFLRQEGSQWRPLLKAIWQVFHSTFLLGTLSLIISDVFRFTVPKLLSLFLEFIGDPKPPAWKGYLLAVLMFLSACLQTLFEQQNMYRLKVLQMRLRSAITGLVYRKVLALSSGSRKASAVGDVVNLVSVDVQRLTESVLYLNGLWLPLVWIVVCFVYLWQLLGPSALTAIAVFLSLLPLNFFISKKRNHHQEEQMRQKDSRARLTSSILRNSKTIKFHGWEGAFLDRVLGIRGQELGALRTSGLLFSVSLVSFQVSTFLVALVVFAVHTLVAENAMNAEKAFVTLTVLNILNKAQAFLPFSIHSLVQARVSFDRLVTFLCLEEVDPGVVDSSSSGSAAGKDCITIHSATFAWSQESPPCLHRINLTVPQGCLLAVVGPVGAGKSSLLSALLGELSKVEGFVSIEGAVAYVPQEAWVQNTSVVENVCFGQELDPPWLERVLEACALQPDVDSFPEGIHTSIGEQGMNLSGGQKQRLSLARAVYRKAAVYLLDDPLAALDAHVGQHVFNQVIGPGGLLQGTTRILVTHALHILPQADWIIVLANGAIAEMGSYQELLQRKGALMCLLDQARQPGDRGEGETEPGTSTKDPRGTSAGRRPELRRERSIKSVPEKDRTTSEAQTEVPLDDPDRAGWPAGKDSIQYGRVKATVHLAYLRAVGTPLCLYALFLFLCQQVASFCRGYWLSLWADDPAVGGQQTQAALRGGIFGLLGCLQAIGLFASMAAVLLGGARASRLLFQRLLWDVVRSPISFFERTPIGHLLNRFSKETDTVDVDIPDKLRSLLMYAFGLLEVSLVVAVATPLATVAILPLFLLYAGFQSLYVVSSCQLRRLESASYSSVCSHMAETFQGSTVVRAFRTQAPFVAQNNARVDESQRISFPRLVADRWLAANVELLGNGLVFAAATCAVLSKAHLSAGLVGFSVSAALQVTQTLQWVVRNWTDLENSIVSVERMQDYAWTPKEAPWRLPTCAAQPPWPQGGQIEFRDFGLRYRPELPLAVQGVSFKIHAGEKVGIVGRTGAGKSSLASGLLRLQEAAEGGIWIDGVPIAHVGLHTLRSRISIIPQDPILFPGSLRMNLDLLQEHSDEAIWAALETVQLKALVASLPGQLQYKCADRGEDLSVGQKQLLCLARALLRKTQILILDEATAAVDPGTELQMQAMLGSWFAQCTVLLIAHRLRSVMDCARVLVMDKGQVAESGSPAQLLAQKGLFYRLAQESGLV
- Assay procedure: TP_TRANSPORTER: drug resistance in MRP6-expressing CHO cells
- Type: functional, cell-based
- Particulars: hamster
Numbered stars: 1 amine (or outer) side, 2 acyl side, 3 side chain; on linkers, the order of the positions; unused ones are H or OH. Bridge positions count the residues as written; N and C are the ends. Square brackets hold non-standard residues; d marks the D form. Peptide text beside a SMILES is read from it. I, II: the chains in the order shown. Actinocin(9to1) = Cc1c2oc3c(C)ccc(C(=O)[*:1])c3nc-2c(C(=O)[*:2])c(N)c1=O; NMeV = CN[C@H](C(=O)O)C(C)C; Sar = CNCC(=O)O
Measured attribute: Activity

[[record]]
molecule = "COc1cccc2c1C(=O)c1c(O)c3c(c(O)c1C2=O)C[C@@](O)(C(C)=O)C[C@@H]3O[C@H]1C[C@H](N)[C@H](O)[C@H](C)O1"
measured_result = "substrate []"

[[record]]
molecule = "Cc1c2oc3c(C)ccc(C(=O)N[C@@H]4C(=O)N[C@H](C(C)C)C(=O)N5CCC[C@H]5C(=O)N(C)CC(=O)N(C)[C@@H](C(C)C)C(=O)O[C@@H]4C)c3nc-2c(C(=O)N[C@@H]2C(=O)N[C@H](C(C)C)C(=O)N3CCC[C@H]3C(=O)N(C)CC(=O)N(C)[C@@H](C(C)C)C(=O)O[C@@H]2C)c(N)c1=O [DACTINOMYCIN] (I: T[dV]P[Sar][NMeV] / II: T[dV]P[Sar][NMeV]; ester I:1-I:C, II:1-II:C; linker I:N-II:N via Actinocin(9to1))"
measured_result = "substrate []"

[[record]]
molecule = "COc1cc([C@@H]2c3cc4c(cc3[C@@H](O[C@@H]3O[C@@H]5CO[C@@H](c6cccs6)O[C@H]5[C@H](O)[C@H]3O)[C@H]3COC(=O)[C@H]23)OCO4)cc(OC)c1O [TENIPOSIDE]"
measured_result = "substrate []"

[[record]]
molecule = "COc1cc([C@@H]2c3cc4c(cc3[C@@H](O[C@@H]3O[C@@H]5CO[C@@H](C)O[C@H]5[C@H](O)[C@H]3O)[C@H]3COC(=O)[C@H]23)OCO4)cc(OC)c1O [ETOPOSIDE]"
measured_result = "substrate []"

